Biological target: Botulinum neurotoxin type A (Clostridium botulinum, UniProt P0DPI0)
Sequence (P0DPI0 2-448 limits assumed): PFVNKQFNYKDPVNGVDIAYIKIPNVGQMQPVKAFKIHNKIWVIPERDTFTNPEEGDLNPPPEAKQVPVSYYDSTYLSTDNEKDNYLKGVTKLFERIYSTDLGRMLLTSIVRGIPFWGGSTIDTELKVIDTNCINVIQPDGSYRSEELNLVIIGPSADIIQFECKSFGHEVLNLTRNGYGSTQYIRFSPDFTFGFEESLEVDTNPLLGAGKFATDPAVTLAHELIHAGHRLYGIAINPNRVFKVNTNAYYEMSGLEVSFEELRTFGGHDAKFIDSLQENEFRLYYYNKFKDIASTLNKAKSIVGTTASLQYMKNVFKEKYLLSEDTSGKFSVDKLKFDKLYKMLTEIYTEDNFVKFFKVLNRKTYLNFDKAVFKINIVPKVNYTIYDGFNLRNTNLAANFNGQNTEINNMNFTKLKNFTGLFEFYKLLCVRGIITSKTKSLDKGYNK
Property label: pIC50
The scale used: pIC50 is minus the common logarithm of the concentration in molar units.

// known answers, use as guide
CC(C)C[C@H](NS(=O)(=O)c1ccc(-c2ccc(Cl)cc2)cc1)C(=O)NO
4.61
CC[C@@H](C)[C@H](NS(=O)(=O)c1ccc(-c2ccc(Cl)cc2)cc1)C(=O)NO
4.38
CC[C@H](C)[C@H](NS(=O)(=O)c1ccc(-c2ccc(F)cc2)cc1)C(=O)NO
5.02
CC[C@@H](C)[C@@H](NS(=O)(=O)c1cccc(-c2ccc(Cl)cc2)c1)C(=O)NO
6.02
CC[C@H](C)[C@H](NS(=O)(=O)c1ccc(-c2ccc(Cl)cc2)cc1)C(=O)NO
5.00

Look up and state reported pIC50 for CC[C@H](C)[C@@H](NS(=O)(=O)c1ccc(-c2ccc(Cl)cc2)cc1)C(=O)NO
4.93

Look up and state reported pIC50 for CC(C)[C@H](NS(=O)(=O)c1ccc(-c2ccc(Cl)cc2)cc1)C(=O)NO
4.42

Look up and state reported pIC50 for CC[C@@H](C)[C@@H](NS(=O)(=O)c1ccc(-c2ccc(Cl)cc2)cc1)C(=O)NO
5.16

Look up and state reported pIC50 for CC[C@H](C)[C@H](NS(=O)(=O)c1cccc(-c2ccc(Cl)cc2)c1)C(=O)NO
5.09

Look up and state reported pIC50 for CC(C)C[C@@H](NS(=O)(=O)c1ccc(-c2ccc(Cl)cc2)cc1)C(=O)NO
4.59

Look up and state reported pIC50 for CC[C@H](C)[C@H](NS(=O)(=O)c1ccc2c(c1)OCCO2)C(=O)NO
4.68

Look up and state reported pIC50 for CC[C@H](C)[C@H](NS(=O)(=O)c1ccc(-c2ccccc2)cc1)C(=O)NO
4.56
